Hello, the source for this data is ChEMBL document CHEMBL1122866, in case you need it.

# Species on record: Mus musculus
# Measurement Description: Antagonistic activity against 5-HTP induced potentiation in mice
# Format: functional
Attribute Measured: ED50 (µmol/kg)
Answers are plain numbers, in µmol/kg.

Some compounds with recorded ED50:
Compound | ED50 / µmol/kg
CNC1CC(c2ccc(Br)cc2)c2ccccc21 (stereo in doubt; 64) | 6.6
CNC1CC(c2ccccc2)c2ccccc21 (stereo unspecified) | 211
CN(C)C1CC(c2cccc(Cl)c2)c2ccccc21 (stereo in doubt; 40) | 43

Now consider the entry below.
## Task Please report ED50 for the following compound: Clc1ccc(C2CC(NCc3ccccc3)c3ccccc32)cc1Cl (stereo in doubt; 94)
## Result 207
